Test system: Aβ1-42 production
EXPERIMENT_NOTES: Cellular assay for inhibition of Aβ1-42 production (H4 APP751 SWE clone 8.20)
Assay type: cell-based
DETAILS: 19 h, H4 APP751 SWE clone 8.20 cells, 19 h incubation; read-out: Activity Rating (Aβ42 cellular IC50, given as a number)
Response field label takes Yes when IC50 is strictly below 10 nM and No in all other cases.

MOLECULE	CATEGORY
COc1cc(Nc2nc3n(n2)CC[C@](C)(O)C[C@@H]3c2ccc(F)cc2)ccc1-n1cnc(Cl)c1 (single isomer, unassigned) [Example 149, 2,2,2-trifluoroacetate]	Yes
COc1cc(Nc2nc3n(n2)CCCC[C@@H]3c2ccc(F)cc2)c(F)cc1-n1cnc(C)n1 (single isomer, unassigned)	No

Query: Item COc1cc(Nc2nc3n(n2)CCCCC3c2ccc(F)cc2)cnc1-n1cnc(Cl)c1 (stereo not drawn) : IC50 beneath 10 nM, strictly?
Result: Yes

Query: Find out if reported IC50 for Cc1ncnn1-c1ccc(Nc2nc3n(n2)CCC[C@H]3c2ccc(F)cc2)cc1F (single isomer, unassigned) is less than 10 nM
Result: No

Query: Input COc1cc(Nc2nc3n(n2)CCCCC3c2ccc(-n3cncn3)cc2)ccc1-n1cnc(Cl)c1 (stereo not drawn) [Example 172, 2,2,2-trifluoroacetate] ; condition: IC50 strictly below 10 nM. Does it hold?
Result: No

Query: Criterion: IC50 strictly below 10 nM. Is it met by COc1cc(Nc2nc3n(n2)CCCCC3c2ccc(S(C)(=O)=O)cc2)ccc1-n1cnc(C)n1 (stereo not drawn) [Example 129, 2,2,2-trifluoroacetate] ?
Result: No

Query: Threshold test, IC50 < 10 nM: Cc1ncn(-c2ccc(Nc3nc4n(n3)CCC3(CC4c4ccc(F)cc4)OCCO3)cc2F)n1 (stereo not drawn) [Example 158, 2,2,2-trifluoroacetate]
Result: No

Query: Hi there! Is IC50 for Cc1ncn(-c2ccc(Nc3nc4n(n3)CCCC4c3ccc(F)cc3)cc2C#N)n1 (stereo not drawn) [Example 11, 2,2,2-trifluoroacetate] below 10 nM, do you know?
Result: No

Query: Consider COc1cc(Nc2nc3c(s2)CCCC3(N)c2ccccc2)ccc1-n1cnc(C)n1 (stereo not drawn) . Does its IC50 lie strictly below 10 nM?
Result: No

Query: Consider COc1cc(Nc2nc3n(n2)CCCC[C@H]3c2cc(F)c(F)c(F)c2)ccc1-n1cnc(Cl)c1 (single isomer, unassigned) . Does its IC50 lie strictly below 10 nM?
Result: Yes

###

Test system: Aβ1-42 production
EXPERIMENT_NOTES: Cellular assay for inhibition of Aβ1-42 production (H4 APP751 SWE clone 8.20)
Format: cell-based
DETAILS: H4 APP751 SWE clone 8.20 cells, 19 h incubation; read-out: Activity Rating (based on Aβ42 cellular IC50 values)
ATTRIBUTE_MEASURED: IC50

Reported IC50 for COc1cc(Nc2nc3n(n2)CCCC[C@@H]3c2ccc(OC(F)(F)F)cc2)ccc1-n1cnc(Cl)c1 (single isomer, unassigned) was 10 to 100 nM

###

System: Aβ1-42 production
EXPERIMENT_NOTES: Cellular assay for inhibition of Aβ1-42 production (H4 APP751 SWE clone 8.20)
Type: cell-based
DETAILS: 19 h, H4 APP751 SWE clone 8.20 cells, 19 h incubation; read-out: Activity Rating (Aβ42 cellular IC50, given as a number)
Parameter pIC50: see the listing below.
To interpret pIC50, take it as minus log10 of a concentration measured in moles per litre.

Consider the worked cases shown below.
COMPOUND	SYSTEM_UNDER_TEST	pIC50
COc1cc(Nc2nc3n(n2)CC=CC[C@H]3c2ccc(F)cc2)ccc1-n1cnc(Cl)c1 (single isomer, unassigned)	Aβ1-42 production	8.05
COc1cc(Nc2nc3n(n2)CCC(N(C)C)CC3c2ccc(F)cc2)ccc1-n1cnc(Cl)c1 (centres unmarked)	Aβ1-42 production	7.15
COc1cc(Nc2nc3n(n2)C[C@H](O)[C@H](O)CC3c2ccc(F)cc2)ccc1-n1cnc(Cl)c1 (relative stereo)	Aβ1-42 production	6.85
COc1cc(Nc2nc3c(s2)CCCC3c2ccccc2)ccc1-n1cnc(C)n1 (centres unmarked)	Aβ1-42 production	7.72
Cc1nc(C)n(-c2ccc(Nc3nc4n(n3)CCCCC4c3ccc(OCC(F)F)cc3)cc2F)n1 (centres unmarked) [Example 109, 2,2,2-trifluoroacetate]	Aβ1-42 production	6.62
COc1cc(Nc2nc3n(n2)CCCCC3c2ccc(F)cc2)ccc1-n1cnc(Cl)n1 (centres unmarked) [Example 33, 2,2,2-trifluoroacetate]	Aβ1-42 production	8.05
COc1cc(Nc2nc3n(n2)CCCCC3c2ccc(OC(F)(F)F)cc2)cc(F)c1-n1cnc(C)n1 (centres unmarked)	Aβ1-42 production	7.36
COc1cc(Nc2nc3n(n2)CCCC[C@@H]3c2ccc(OCC(F)(F)F)cc2)c(F)cc1-n1cnc(C)n1 (single isomer, unassigned)	Aβ1-42 production	6.97

The reported Aβ1-42 production pIC50 of COc1cc(Nc2nc3n(n2)CCCC[C@H]3c2ccc(OCC(F)(F)F)cc2)ccc1-n1cnc(Cl)c1 (single isomer, unassigned) is 8.30

Measured pIC50 (Aβ1-42 production), entry COc1cc(Nc2nc3c(s2)CCCC3(C)c2ccccc2)ccc1-n1cnc(Cl)c1 (centres unmarked) [Example 73, 2,2,2-trifluoroacetate] : 6.85

Here COc1cc(Nc2nc3n(n2)CCCCC3(O)c2ccc(F)cc2)ccc1-n1cnc(Cl)c1 (centres unmarked) was tested on Aβ1-42 production, and its pIC50 came to 7.96

The observed pIC50 for Cc1ncnn1-c1ccc(Nc2nc3n(n2)CC[C@H](O)C[C@@H]3c2ccc(F)cc2)cc1F (relative stereo) [Example 156, 2,2,2-trifluoroacetate] when tested with Aβ1-42 production stands at 6.91

Form field pIC50 for item COc1cc(Nc2nc3n(n2)CC=CCC3(C)C)ccc1-n1cnc(Cl)c1 [Example 9, 2,2,2-trifluoroacetate] on Aβ1-42 production: 6.96

Per the reported Aβ1-42 production data, COc1cc(Nc2nc3n(n2)CCCC3c2ccc(Cl)cc2Cl)ccc1-n1cnc(Cl)c1 (centres unmarked) has pIC50 of 8.10

// pIC50 (Aβ1-42 production) for Cc1ncn(-c2ccc(Nc3nc4n(n3)CCCC[C@H]4c3ccc(OC(F)(F)F)cc3)cc2F)n1 (single isomer, unassigned) = 8.05

Measured on Aβ1-42 production, COc1cc(Nc2cc3n(n2)C(c2ccc(F)cc2)CCC3)ccc1-n1cnc(Cl)c1 (centres unmarked) has a documented pIC50 of 7.92

Case C=C1CCn2nc(Nc3ccc(-n4cnc(Cl)c4)c(OC)c3)nc2[C@H](c2ccc(F)cc2)C1 (single isomer, unassigned) , Aβ1-42 production, pIC50 recorded as 8.52
